Source of measurements: patent US8673938B2

- Target entity: human 11βHSD1 enzyme (Homo sapiens (Human), UniProt P28845)
- Sequence (P28845 whole entry): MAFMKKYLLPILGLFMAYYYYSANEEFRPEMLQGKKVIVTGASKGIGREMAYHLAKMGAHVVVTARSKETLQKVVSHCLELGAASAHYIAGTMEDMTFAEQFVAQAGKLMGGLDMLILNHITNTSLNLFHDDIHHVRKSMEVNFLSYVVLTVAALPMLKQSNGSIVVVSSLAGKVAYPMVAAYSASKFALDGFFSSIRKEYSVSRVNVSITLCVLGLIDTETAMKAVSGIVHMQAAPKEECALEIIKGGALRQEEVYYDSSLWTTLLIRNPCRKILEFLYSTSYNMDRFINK
- Protocol summary: biochemical
- Assay conditions: read-out: % inhibition of human 11-βHSD
The label depends only on inhibition at 30 µM: 1.0 if it is at least 90%, 0.0 if it is smaller.

CCCSc1nc(N2CC[C@H](CC(=O)O)C2)ccc1C(=O)N[C@H]1C2CC3CC1C[C@](OC(F)F)(C3)C2 : 1.0
CCCSc1nc(N2CCC(C(C)C(=O)O)CC2)ccc1C(=O)NC1CCCCC1 (stereo not shown) : 0.0

Shift focus to the following entry.
Query block: Say whether CCCSc1nc(N2CCC[C@@H](CC(=O)O)C2)ccc1C(=O)N[C@H]1C2CC3CC1C[C@@](O)(C3)C2 shows inhibition at 30 µM of 90% or more.
Result block: 0.0

====

Measured inhibition at 30 µM, listed per entry for reference.
- Target entity: human 11βHSD1 enzyme (Homo sapiens (Human), UniProt P28845)
- Protocol summary: biochemical
- Assay conditions: read-out: % inhibition of human 11-βHSD
A number alone suffices; assume %.

O=C(O)C[C@H]1CCN(c2ccc(C(=O)N[C@H]3C4CC5CC3C[C@](O)(C5)C4)c(SC3CCCCC3)n2)C1 : 92
O=C(O)C[C@@H]1CCN(c2ccc(C(=O)N[C@H]3C4CC5CC3C[C@](OC(F)F)(C5)C4)c(SC3CCCCC3)n2)C1 : 91

Query block: Lab note: record inhibition at 30 µM of O=C(O)C[C@@H]1CCCN(c2ccc(C(=O)NC3CCCCC3)c(OCCc3ccc(F)cc3)n2)C1 tested on human 11βHSD1 enzyme (Homo sapiens (Human), UniProt P28845).
Result block: 92

====

Measured inhibition at 30 µM, listed per entry for reference.
- Target entity: human 11βHSD1 enzyme (Homo sapiens (Human))
- Protocol summary: biochemical
- Assay conditions: read-out: % inhibition of human 11-βHSD
A number alone suffices; assume %.

CCCSc1nc(N2CCC(C(=O)O)(C(C)C)CC2)ccc1C(=O)NC1CCCCC1 : 93

Query block: Return inhibition at 30 µM (reported value) for this compound: CCCSc1nc(N2CCCC(C(C)(C)C(=O)O)C2)ccc1C(=O)N[C@H]1C2CC3CC1C[C@](O)(C3)C2 (stereo partly drawn)
Result block: 89

Query block: Return inhibition at 30 µM (reported value) for this compound: CC(=O)N1CCN(c2nc(N3CCC[C@@H](CC(=O)O)C3)ccc2C(=O)NC2CCCCC2)CC1
Result block: 86

Query block: Return inhibition at 30 µM (reported value) for this compound: CCCSc1nc(N2CCC[C@@H](CC(=O)O)C2)ccc1C(=O)N1CCCCC1
Result block: 93

Query block: Return inhibition at 30 µM (reported value) for this compound: CC(C)CCSc1nc(N2CCC[C@@H](CC(=O)O)C2)ccc1C(=O)NC1C2CC3CC1CC(O)(C3)C2 (stereo partly drawn)
Result block: 87

Query block: Return inhibition at 30 µM (reported value) for this compound: CN(CCc1ccccc1)c1nc(N2CCC[C@@H](CC(=O)O)C2)ccc1C(=O)NC1CCCCC1
Result block: 92

Query block: Return inhibition at 30 µM (reported value) for this compound: CC(C)CCSc1nc(N2C[C@@H]3[C@H](C2)[C@H]3C(=O)O)ccc1C(=O)N[C@H]1C2CC3CC1C[C@@](O)(C3)C2
Result block: 95

Query block: Return inhibition at 30 µM (reported value) for this compound: CCCSc1nc(N2CCC[C@@H](CC(=O)O)C2)ccc1C(=O)N(C)C1CCCCC1
Result block: 100

Query block: Return inhibition at 30 µM (reported value) for this compound: O=C(O)C[C@@H]1CCCN(c2ccc(C(=O)N[C@H]3C4CC5CC3C[C@](OC(F)F)(C5)C4)c(SC3CCCC3)n2)C1
Result block: 93

====

- Target entity: human 11βHSD1 enzyme (Homo sapiens (Human), UniProt P28845)
- Protocol summary: biochemical
- Assay conditions: read-out: % inhibition of human 11-βHSD
The label depends only on inhibition at 30 µM: Condition met if it is at least 90%, Condition not met if it is smaller.

Solved entries (count: 7):
O=C(O)C[C@H]1CCCN(c2ccc(C(=O)NC3CCCCC3)c(SCCc3ccccc3)n2)C1 [Example 129] : Condition not met
CCCSc1nc(N2CCC[C@@H](CC(=O)O)C2)ccc1C(=O)N1CCC(c2ccccn2)C1 (some centres unmarked) [Example 114] : Condition met
CSc1nc(N2CC[C@@H](C(=O)O)C2)ccc1C(=O)NC1C2CC3CC(C2)CC1C3 (some centres unmarked) [Example 77] : Condition met
CCCSc1nc(N2CCC[C@H]2C(=O)O)ccc1C(=O)NC1CCCCC1 [Example 27] : Condition met
CCCCc1nc(N2CC3C(C2)C3C(=O)O)ccc1C(=O)NC1C2CC3CC(C2)CC1C3 (centres unmarked) [Example 163] : Condition met
CCCSc1nc(N2CCC[C@@H](CC(=O)O)C2)ccc1C(=O)NC1CCCCC1 [Example 7] : Condition not met
CCCSc1nc(N2CCCC(OC(C)C(=O)O)C2)ccc1C(=O)NC1CCCCC1 (centres unmarked) [Example 44] : Condition not met

Shift focus to the following entry.
Query block: Say whether O=C(N[C@H]1C2CC3CC1C[C@](O)(C3)C2)c1ccc(N2CCC[C@H]2C(=O)O)nc1SC1CCCCC1 [Example 101] shows inhibition at 30 µM of 90% or more.
Result block: Condition met

====

Measured inhibition at 30 µM, listed per entry for reference.
- Target entity: human 11βHSD1 enzyme (Homo sapiens (Human), UniProt P28845)
- Protocol summary: biochemical
- Assay conditions: read-out: % inhibition of human 11-βHSD

Examples from the recorded data:
CCSc1nc(N2CC[C@H](CC(=O)O)C2)ccc1C(=O)NC1C2CC3CC(C2)CC1C3 (stereo partly drawn) : 92%
CCCSc1nc(N2CCC(OCC(=O)O)C2)ccc1C(=O)NC1CCCCC1 (stereo not drawn) : 92%
O=C(N[C@H]1C2CC3CC1C[C@](O)(C3)C2)c1ccc(N2CC[C@@H](C(=O)O)C2)nc1SC1CCCC1 : 88%
CCCSc1nc(N2CCC[C@@H](CC(=O)O)C2)ccc1C(=O)N(CC1CC1)C1CCCCC1 : 88%
CCCSc1nc(N2CCC[C@@H](CC(=O)O)C2)ccc1C(=O)NC12CC3CC(CC(C3)C1)C2 : 88%

Now look at this entry.
Query block: Return inhibition at 30 µM (reported value) for this compound: CCCSc1nc(Oc2ccc(C(C)C(=O)O)cc2)ccc1C(=O)NC1CCCCC1 (stereo not drawn)
Result block: 88%

====

Measured inhibition at 30 µM, listed per entry for reference.
- Target entity: human 11βHSD1 enzyme (Homo sapiens (Human), UniProt P28845)
- Protocol summary: biochemical
- Assay conditions: read-out: % inhibition of human 11-βHSD

CCCSc1nc(N2CCCC(OCC(=O)O)C2)ccc1C(=O)NC1CCCCC1 (stereo not drawn) : 83%
CCCSc1nc(N2CCC[C@H](CC(=O)O)C2)ccc1C(=O)N(C)C1CCCCC1 : 108%
CCCSc1nc(N2CCC[C@@H](CC(=O)O)C2)c(F)cc1C(=O)NC1CCCCC1 : 104%
CCCSc1nc(N2CC[C@H](C(=O)O)C2)ccc1C(=O)NC1C2CC3CC(C2)CC1C3 (stereo partly drawn) : 88%
CCCSc1nc(N2CCCC(CC(=O)O)C2)ccc1C(=O)NC1CCCCC1 (stereo not drawn) : 86%
O=C(O)C[C@@H]1CCCN(c2ccc(C(=O)NC3CCCCC3)c(OCCCc3ccccc3)n2)C1 : 99%

Query block: Lab note: record inhibition at 30 µM of CCCSc1nc(N2C[C@@H]3[C@H](C2)[C@H]3C(=O)O)ccc1C(=O)NC1C2CC3CC(C2)CC1C3 (stereo partly drawn) tested on human 11βHSD1 enzyme (Homo sapiens (Human), UniProt P28845).
Result block: 89%

Query block: Lab note: record inhibition at 30 µM of CCCSc1nc(Sc2ccc(OCC(=O)O)cc2)ccc1C(=O)NC1CCCCC1 tested on human 11βHSD1 enzyme (Homo sapiens (Human), UniProt P28845).
Result block: 61%

====

Measured inhibition at 30 µM, listed per entry for reference.
- Target entity: human 11βHSD1 enzyme (Homo sapiens (Human))
- Protocol summary: biochemical
- Assay conditions: read-out: % inhibition of human 11-βHSD
A number alone suffices; assume %.

O=C(O)C[C@@H]1CCCN(c2ccc(C(=O)N[C@H]3C4CC5CC3C[C@@](O)(C5)C4)c(SC3CCCCC3)n2)C1 : 90
O=C(O)C[C@@H]1CCCN(c2ccc(C(=O)N[C@H]3C4CC5CC3C[C@@](O)(C5)C4)c(SC3CCCC3)n2)C1 : 90
CCCSc1nc(N2CCC[C@@H](CC(=O)O)C2)ccc1C(=O)NC1CCOCC1 : 92

Now look at this entry.
Query block: Lab note: record inhibition at 30 µM of O=C(O)C[C@H]1CCN(c2ccc(C(=O)N[C@H]3C4CC5CC3C[C@@](O)(C5)C4)c(SC3CCCC3)n2)C1 tested on human 11βHSD1 enzyme (Homo sapiens (Human)).
Result block: 88
